B1: Transcription elongation factor A N-terminal and central domain-containing protein, residues 30 to 77; numbered along this chain, Q8N8B7 (parent)
chain: LTELETIYVTKEHLQETDVVRAVYRVLKNCPSVALKKKAKCLLSKWKA

variants of: B1; assay: abundance fitness (aPCA) (normalised: wild type 0, dead -1); higher = more abundant; growth selection in yeast, the domain comes from the species named; conditions: Homo sapiens
Recorded abundance fitness by entry

>  <sequenceRecord>
LTELETIYVTKEHLQETDVVRAVYRVLKNCPSVALKKKAKCWLSKWKA [L42W]

>  <abundance fitness>
-0.026

$$$$
>  <sequenceRecord>
LTELETIYVDKEHLQETDVVRAVYRVLKNCPSVALKKKAKCLLSKWKA [T10D]

>  <abundance fitness>
-0.31

$$$$
>  <sequenceRecord>
LTELETIYVTKEHLDETDVVRAVYRVLKNCPSVALKKKAKCLLSKWKA [Q15D]

>  <abundance fitness>
-0.27

$$$$
>  <sequenceRecord>
LTLLETIYVTKEHLQETDVVRAVYRVLKNCPSVALKKKAKCLLSKWKA [E3L]

>  <abundance fitness>
-0.07

$$$$
>  <sequenceRecord>
LTELETIYVTKEHLQETDVVRAVYRVLKNCPSVALKKKAKCLLHKWKA [S44H]

>  <abundance fitness>
0.079

$$$$
>  <sequenceRecord>
LTELETIYVTKEHLQETDVVRAVYRVLKNCPSVALKKKAKCKLSKWKA [L42K]

>  <abundance fitness>
-1.13

$$$$
>  <sequenceRecord>
LTELATIYVTKEHLQETDVVRAVYRVLKNCPSVALKKKAKCLLSKWKA [E5A]

>  <abundance fitness>
-0.235

$$$$
>  <sequenceRecord>
LTELETIYVTKEHLQETDVVRAVYRVLKNCPSVALKAKAKCLLSKWKA [K37A]

>  <abundance fitness>
-0.365

$$$$
>  <sequenceRecord>
LTELETIYVTKEHLQETDVVRAVHRVLKNCPSVALKKKAKCLLSKWKA [Y24H]

>  <abundance fitness>
-0.468

$$$$
>  <sequenceRecord>
LTELETIYVTKEHLQETDVVRAVYRRLKNCPSVALKKKAKCLLSKWKA [V26R]

>  <abundance fitness>
0.211

$$$$
>  <sequenceRecord>
LTELETIYVTKEHLQETDVVRAVYRVLKNCPSVALVKKAKCLLSKWKA [K36V]

>  <abundance fitness>
0.066

$$$$
>  <sequenceRecord>
LTELETIYVTKEHLQETDVVRAVYRVLKNCPSVALKKKAKCLGSKWKA [L43G]

>  <abundance fitness>
-1.12

$$$$
>  <sequenceRecord>
LTELETIYVTDEHLQETDVVRAVYRVLKNCPSVALKKKAKCLLSKWKA [K11D]

>  <abundance fitness>
-0.021

$$$$
>  <sequenceRecord>
LTELETIYDTKEHLQETDVVRAVYRVLKNCPSVALKKKAKCLLSKWKA [V9D]

>  <abundance fitness>
0.276

$$$$
>  <sequenceRecord>
LTELETIYVTKEHLQETDVVRAVYRVLKNWPSVALKKKAKCLLSKWKA [C30W]

>  <abundance fitness>
0.119

$$$$
>  <sequenceRecord>
LTELETIYVTKEHLQETDVVRAVYRVLKNCFSVALKKKAKCLLSKWKA [P31F]

>  <abundance fitness>
0.511

$$$$
>  <sequenceRecord>
LTELETIYVTKEHLQETDVHRAVYRVLKNCPSVALKKKAKCLLSKWKA [V20H]

>  <abundance fitness>
-0.491

$$$$
>  <sequenceRecord>
LTELETIYVTKEHLQETDRVRAVYRVLKNCPSVALKKKAKCLLSKWKA [V19R]

>  <abundance fitness>
0.037

$$$$
>  <sequenceRecord>
LTELETIYVTKEHLQETDVVRAVYYVLKNCPSVALKKKAKCLLSKWKA [R25Y]

>  <abundance fitness>
-0.805

$$$$
>  <sequenceRecord>
LTELETIYVTKEHLQETDVVRAVYRVLKNCKSVALKKKAKCLLSKWKA [P31K]

>  <abundance fitness>
0.291

$$$$
>  <sequenceRecord>
LTELETIYVTKEHLQMTDVVRAVYRVLKNCPSVALKKKAKCLLSKWKA [E16M]

>  <abundance fitness>
0.041

$$$$
>  <sequenceRecord>
LTTLETIYVTKEHLQETDVVRAVYRVLKNCPSVALKKKAKCLLSKWKA [E3T]

>  <abundance fitness>
-0.464

$$$$
